Target Of Assay: T1, human IL-17A (construct not specified) (human, UniProt Q16552 24-155, limits assumed)
T1 construct: also called huIL-17A
T1 sequence: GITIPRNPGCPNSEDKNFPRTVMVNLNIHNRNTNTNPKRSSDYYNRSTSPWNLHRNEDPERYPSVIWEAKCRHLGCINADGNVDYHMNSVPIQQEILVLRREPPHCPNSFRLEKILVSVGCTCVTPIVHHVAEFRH
Assay: ELISA, coated huIL-17A, crude Fab extract
Experimental Endpoint: Classic ELISA (normalized to XAB1 Fab) (fold)
Numbers only here, please. The scale is fold.

Query: Name the reported Classic ELISA (normalized to XAB1 Fab) value associated with the binder MB450 (Fab, V domains shown, Fab variant of XAB1) VH: EVQLVESGGDLVQPGGSLRLSCAASGFTFSSYWMSWVRQAPGKGLEWVANIKQDGSEKYYVDSVKGRFTISRDNAKNSLYLQMNSLRAEDTAVYYCARDRGSLYYWGQGTLVTVSS VL: AIQLTQSPSSLSASVGDRVTITCRPSQGIMWWLAWYQQKPGKAPKLLIYDASSLENGVPSRFSGSGSGTDFTLTISSLQPEDFATYYCQQFNSYPLTFGGGTKVEIK
Result: 2.9

Query: Can you check MB434 (Fab, V domains shown, Fab variant of XAB1) VH: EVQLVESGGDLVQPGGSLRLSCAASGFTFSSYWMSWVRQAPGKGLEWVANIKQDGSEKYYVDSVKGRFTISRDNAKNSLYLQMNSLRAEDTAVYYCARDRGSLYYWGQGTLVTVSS VL: AIQLTQSPSSLSASVGDRVTITCRPSQGIWWYLAWYQQKPGKAPKLLIYDASSLENGVPSRFSGSGSGTDFTLTISSLQPEDFATYYCQQFNSYPLTFGGGTKVEIK next?
Result: 2.4
